- system under test: KCNQ2 (Homo sapiens)
- measurement protocol: TEVC of homomeric KCNQ2 expressed in Xenopus oocytes
- Assay type: cell-based
- recorded conditions: −60 mV; read-out: EC50 of KCNQ2 activation
- Excerpt: cRNA transcripts encoding human KCNA1, KCNQ1, KCNQ2, KCNQ3, KCNQ4, or KCNQ5 were generated by in vitro transcription using the T7 polymerase message machine kit (Thermo Fisher Scientific), after vector linearization, from cDNA sub-cloned into plasmids incorporating X. laevis β-globin 5′ and 3′ UTRs flanking the coding region to enhance translation and cRNA stability. cRNA was quantified by spectrophotometry. […]
reported metric: pEC50
In simple prose, pEC50 is minus the logarithm base ten of a concentration in moles per litre.

Query block: Would you mind telling me what pEC50 value was observed for CC(=O)c1c(O)c(C)c(O)c(Cc2c(O)c3c(c(C(=O)/C=C/c4ccccc4)c2O)OC(C)(C)C=C3)c1O ?
Result block: 5.19

All values here come from patent US12268683B2.
